system.under.test: hDOR-1 (Homo sapiens, UniProt P41143)
Construct: purchased Amersham Biosciences; host or cells: stably transfected HEK-293 cells (membrane preparation)
Sequence (P41143 whole entry): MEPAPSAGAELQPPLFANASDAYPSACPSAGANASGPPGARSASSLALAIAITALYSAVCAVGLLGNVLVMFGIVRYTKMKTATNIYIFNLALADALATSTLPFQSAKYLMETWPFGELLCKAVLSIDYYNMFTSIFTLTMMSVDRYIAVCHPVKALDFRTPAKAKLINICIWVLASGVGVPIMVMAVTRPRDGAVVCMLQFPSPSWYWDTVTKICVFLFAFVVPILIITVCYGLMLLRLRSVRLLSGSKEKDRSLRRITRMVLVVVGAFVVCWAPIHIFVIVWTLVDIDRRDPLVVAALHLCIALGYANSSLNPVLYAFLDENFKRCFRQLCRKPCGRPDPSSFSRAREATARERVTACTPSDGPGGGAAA
assay.details: Opioid receptor competitive binding assay, DOR
test.conditions: Ki DOR, Table 6; footnote:, hDOR-1 stably transfected into HEK-293 cells; errors two standard deviations
property: pKi
Note on units: pKi is unitless, being -log10 of a concentration expressed in mol/L.

The examples below pair each entry with its known result.
| compound | pKi |
| --- | --- |
| NC(=O)C(Cc1ccccc1)NC(=O)C(Cc1ccccc1)C(O)/C=C/CC(O)C(N)Cc1ccc(O)cc1 (single isomer, unassigned) [(S,S,R,S)-2] | 5.16 |
| C=CC(O)C(Cc1ccccc1)NC(=O)C(Cc1ccccc1)C(O)/C=C/CC(O)C(N)Cc1ccc(O)cc1 (single isomer, unassigned) [(S,R,R,R)-12] | 6.24 |
| NC(Cc1ccc(O)cc1)C(O)C/C=C/C(O)C(Cc1ccccc1)C(=O)NCCc1ccccc1 (single isomer, unassigned) [(S,R,R,R)-10] | 5.54 |

*Q* Requested field: pKi. Item: C=CC(O)C(Cc1ccccc1)NC(=O)C(Cc1ccccc1)C(O)/C=C/CC(O)C(N)Cc1ccc(O)cc1 (single isomer, unassigned) [(S,S,R,R)-12]
*A* 6.21

*Q* Requested field: pKi. Item: NC(=O)C(Cc1ccccc1)NC(=O)C(Cc1ccccc1)C(O)/C=C/CC(O)C(N)Cc1ccc(O)cc1 (single isomer, unassigned) [(S,R,R,R)-2]
*A* 5.85

*Q* Requested field: pKi. Item: NC(=O)C(Cc1ccccc1)NC(=O)C(Cc1ccccc1)C(O)/C=C\CC(O)C(N)Cc1ccc(O)cc1 (single isomer, unassigned) [(S,R,R,R)-9]
*A* 5.04

*Q* Requested field: pKi. Item: NC(Cc1ccc(O)cc1)C(O)C/C=C/C(O)C(Cc1ccccc1)C(=O)NC(CO)Cc1ccccc1 (single isomer, unassigned) [(S,S,R,R)-11]
*A* 6.21

*Q* Requested field: pKi. Item: NC(=O)C(Cc1ccccc1)NC(=O)C(Cc1ccccc1)C(O)/C=C\CC(O)C(N)Cc1ccc(O)cc1 (single isomer, unassigned) [(S,S,S,R)-9]
*A* 5.66

*Q* Requested field: pKi. Item: NC(=O)C(Cc1ccccc1)NC(=O)C(Cc1ccccc1)C(O)/C=C/CC(O)C(N)Cc1ccc(O)cc1 (single isomer, unassigned) [(S,S,R,R)-2]
*A* 5.92

*Q* Requested field: pKi. Item: NC(Cc1ccc(O)cc1)C(O)C/C=C/C(O)C(Cc1ccccc1)C(=O)NCCc1ccccc1 (single isomer, unassigned) [(S,S,R,R)-10]
*A* 5.92

*Q* Requested field: pKi. Item: NC(Cc1ccc(O)cc1)C(O)C/C=C/C(O)C(Cc1ccccc1)C(=O)NC(CO)Cc1ccccc1 (single isomer, unassigned) [(S,R,R,R)-11]
*A* 6.02

*Q* Requested field: pKi. Item: NC(=O)C(Cc1ccccc1)NC(=O)C(Cc1ccccc1)C(O)/C=C/CC(O)C(N)Cc1ccc(O)cc1 (single isomer, unassigned) [(S,R,S,R)-2]
*A* 6.07
